Assay: Aqueous solubility of compound in acidic JP1 solution
Assay type: physicochemical
Settings: JP1 solution; read-out: solubility
Experimental readout: solubility

>>> result("C=Cc1cc(C(=O)Nc2c(O)c3ccc(O[C@@H]4OC(C)(C)[C@H](OC)[C@@H](OC(=O)c5ccc(C)[nH]5)[C@H]4O)c(C)c3oc2=O)ccc1N")
"1.79 µM"

Reported solubility ( CO[C@@H]1[C@@H](OC(=O)c2ccc(C)[nH]2)[C@@H](O)[C@H](Oc2ccc3c(O)c(NC(=O)c4ccc(O)c(CC=C(C)C)c4)c(=O)oc3c2C)OC1(C)C ) = < 1 µM

Reported solubility ( CO[C@@H]1[C@@H](OC(=O)c2ccc(C)[nH]2)[C@@H](O)[C@H](Oc2ccc3c(O)c(NC(=O)c4cn(C)cn4)c(=O)oc3c2C)OC1(C)C ) = > 80 µM

Reported solubility ( CO[C@@H]1[C@@H](OC(=O)c2ccc(C)[nH]2)[C@@H](O)[C@H](Oc2ccc3c(O)c(NC(=O)c4ccc(C)c(C)c4)c(=O)oc3c2C)OC1(C)C ) = < 1 µM
